- PROTOCOL SUMMARY: Mitochondrial respiration
- Format: cell-based
- CONDITION PARAMETERS: human, HepG2 cells, pH 7.4, 3-day CC50 Spare respiration, 3-day treatment
QUANTITY: CC50 at 3 day (µM)
One number for each entry, in µM.

The recorded CC50 at 3 day for entry CCC(CC)COC(=O)[C@H](C)N[P@](=O)(OC[C@H]1O[C@@](C#N)(c2ccc3c(N)ncnn23)[C@H](O)[C@@H]1O)Oc1ccccc1 equals 10.6

====

- PROTOCOL SUMMARY: Mitochondrial respiration
- Format: cell-based
- CONDITION PARAMETERS: human, RPTEC cells, 3-day CC50 Total DNA content, RPTECs; 3-day treatment
QUANTITY: CC50 at 3 day (µM)
Numbers only, in µM.

The recorded CC50 at 3 day for entry CCC(CC)COC(=O)[C@H](C)N[P@](=O)(OC[C@H]1O[C@@](C#N)(c2ccc3c(N)ncnn23)[C@H](O)[C@@H]1O)Oc1ccccc1 [RDV, Remdesivir] equals 14.3

====

- PROTOCOL SUMMARY: Mitochondrial respiration
- Format: cell-based
- CONDITION PARAMETERS: human, RPTEC cells, 3-day CC50 Cellular ATP, RPTECs; 3-day treatment
QUANTITY: CC50 at 3 day (µM)
Numbers only, in µM.

The recorded CC50 at 3 day for entry CCC(CC)COC(=O)[C@H](C)N[P@](=O)(OC[C@H]1O[C@@](C#N)(c2ccc3c(N)ncnn23)[C@H](O)[C@@H]1O)Oc1ccccc1 equals 16.9

====

- System: Stimulated PBMC
- CONDITION PARAMETERS: 5-day treatment
QUANTITY: CC50 (µM)
Answers are plain numbers, in µM.

The recorded CC50 for entry CCC(CC)COC(=O)[C@H](C)N[P@](=O)(OC[C@H]1O[C@@](C#N)(c2ccc3c(N)ncnn23)[C@H](O)[C@@H]1O)Oc1ccccc1 [RDV, Remdesivir] equals 14.8

====

- System: COX-1 (mitochondrial DNA-encoded cytochrome c oxidase, complex IV) protein level
- PROTOCOL SUMMARY: Mitochondrial protein synthesis assay
- Type: cell-based
- CONDITION PARAMETERS: human, PC-3 cells
QUANTITY: CC50 at 5 days (µM)
Give bare numbers, in µM.

Each molecule below has a recorded value; state its CC50 at 5 days.
1. O=C(N[C@H](CO)[C@H](O)c1ccc([N+](=O)[O-])cc1)C(Cl)Cl [Chloramphenicol, chloramphenicol, reference compound]
2. CCC(CC)COC(=O)[C@H](C)N[P@](=O)(OC[C@H]1O[C@@](C#N)(c2ccc3c(N)ncnn23)[C@H](O)[C@@H]1O)Oc1ccccc1

## Output
2.6
8.9

====

- ASSAYED TARGET: human DNA polymerase gamma (Homo sapiens)
- Sequence (P54098 whole entry): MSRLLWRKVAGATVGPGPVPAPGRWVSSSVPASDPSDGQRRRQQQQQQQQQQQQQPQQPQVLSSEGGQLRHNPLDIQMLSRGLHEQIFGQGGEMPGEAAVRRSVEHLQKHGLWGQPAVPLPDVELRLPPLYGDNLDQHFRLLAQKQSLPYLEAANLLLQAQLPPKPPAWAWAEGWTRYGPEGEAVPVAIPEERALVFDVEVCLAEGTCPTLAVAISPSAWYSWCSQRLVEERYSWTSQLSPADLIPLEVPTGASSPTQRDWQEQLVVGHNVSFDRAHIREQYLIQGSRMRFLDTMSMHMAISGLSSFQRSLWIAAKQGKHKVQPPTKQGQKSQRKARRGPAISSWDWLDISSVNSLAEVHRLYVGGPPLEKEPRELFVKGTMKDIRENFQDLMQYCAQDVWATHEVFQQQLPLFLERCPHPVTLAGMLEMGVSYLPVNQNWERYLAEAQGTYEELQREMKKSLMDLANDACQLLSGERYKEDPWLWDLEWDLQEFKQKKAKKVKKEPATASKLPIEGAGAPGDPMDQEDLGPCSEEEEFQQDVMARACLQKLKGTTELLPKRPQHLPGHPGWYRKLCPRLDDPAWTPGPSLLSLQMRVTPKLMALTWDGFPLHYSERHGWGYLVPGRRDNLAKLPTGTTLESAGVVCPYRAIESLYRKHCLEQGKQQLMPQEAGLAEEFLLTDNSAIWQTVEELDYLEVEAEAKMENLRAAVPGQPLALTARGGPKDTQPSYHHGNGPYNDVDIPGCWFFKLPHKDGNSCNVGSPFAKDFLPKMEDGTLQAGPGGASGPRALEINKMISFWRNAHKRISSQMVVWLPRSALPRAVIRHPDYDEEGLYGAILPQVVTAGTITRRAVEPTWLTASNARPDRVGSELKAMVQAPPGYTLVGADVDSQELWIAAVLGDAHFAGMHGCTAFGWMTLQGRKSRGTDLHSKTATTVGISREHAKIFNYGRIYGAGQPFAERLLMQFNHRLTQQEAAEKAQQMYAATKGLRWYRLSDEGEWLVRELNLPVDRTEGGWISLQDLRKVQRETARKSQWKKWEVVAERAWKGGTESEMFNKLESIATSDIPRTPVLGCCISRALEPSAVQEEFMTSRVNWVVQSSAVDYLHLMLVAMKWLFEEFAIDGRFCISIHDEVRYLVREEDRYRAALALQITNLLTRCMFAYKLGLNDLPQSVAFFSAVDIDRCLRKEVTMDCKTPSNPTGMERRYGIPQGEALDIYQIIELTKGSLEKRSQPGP
- Sequence (Q9UHN1 26-485 partner limits assumed): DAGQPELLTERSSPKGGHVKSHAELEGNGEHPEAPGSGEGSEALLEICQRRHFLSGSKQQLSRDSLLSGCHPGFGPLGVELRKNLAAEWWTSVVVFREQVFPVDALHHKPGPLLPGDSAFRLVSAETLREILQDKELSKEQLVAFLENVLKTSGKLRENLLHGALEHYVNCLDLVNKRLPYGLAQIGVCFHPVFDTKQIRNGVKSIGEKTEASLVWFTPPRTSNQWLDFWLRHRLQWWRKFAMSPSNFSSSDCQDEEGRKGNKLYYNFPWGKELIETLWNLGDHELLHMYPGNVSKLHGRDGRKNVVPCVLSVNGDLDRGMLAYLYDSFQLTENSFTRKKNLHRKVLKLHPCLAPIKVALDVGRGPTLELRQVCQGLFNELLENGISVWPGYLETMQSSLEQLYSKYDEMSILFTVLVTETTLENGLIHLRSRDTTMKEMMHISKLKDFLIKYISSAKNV
QUANTITY: pIC50
Answers are plain numbers, as −log10 of the molar value.

The recorded pIC50 for entry Cc1cn([C@H]2CC[C@@H](COP(=O)(O)OP(=O)(O)OP(=O)(O)O)O2)c(=O)[nH]c1=O equals 5.92

====

- System: PC-3
- CONDITION PARAMETERS: read-out: 5-day CC50 PC-3 cells Anaerobic (glucose)
QUANTITY: CC50

The recorded CC50 for entry N#C[C@@]1(c2ccc3c(N)ncnn23)O[C@H](CO)[C@@H](O)[C@H]1O [GS-441524] equals > 100 µM

====

- PROTOCOL SUMMARY: in vitro
- CONDITION PARAMETERS: human, CC50, Myeloid progenitors; 11- to 14-day treatment
QUANTITY: CC50

Examples from the recorded data:
{"columns": ["COMPOUND", "CC50"],
 "data": [
  ["N#C[C@@]1(c2ccc3c(N)ncnn23)O[C@H](CO)[C@@H](O)[C@H]1O", "11.7 µM"],
  ["CCC(CC)COC(=O)[C@H](C)N[P@](=O)(OC[C@H]1O[C@@](C#N)(c2ccc3c(N)ncnn23)[C@H](O)[C@@H]1O)Oc1ccccc1", "5.1 µM"]
]}

# ---- query compound ----
The recorded CC50 for entry O=c1[nH]cc(F)c(=O)[nH]1 [5-fluorouracil, reference compound] equals 2.2 µM

====

- PROTOCOL SUMMARY: Mitochondrial respiration
- Type: cell-based
- CONDITION PARAMETERS: human, PHH cells (primary human hepatocytes)
QUANTITY: CC50 at 3 day (µM)
Give bare numbers, in µM.

{"columns": ["MOLECULE", "CC50 at 3 day [µM]"],
 "data": [
  ["[H]/N=C(/N)N/C(=N/[H])NCCc1ccccc1 [Phenformin, phenformin, reference compound]", 9.7]
]}

# ---- query molecule ----
The recorded CC50 at 3 day for entry CCC(CC)COC(=O)[C@H](C)N[P@](=O)(OC[C@H]1O[C@@](C#N)(c2ccc3c(N)ncnn23)[C@H](O)[C@@H]1O)Oc1ccccc1 [RDV, Remdesivir] equals 7.8

====

- PROTOCOL SUMMARY: in vitro
- CONDITION PARAMETERS: human
QUANTITY: CC50 at 5 days

The recorded CC50 at 5 days for entry N#C[C@@]1(c2ccc3c(N)ncnn23)O[C@H](CO)[C@@H](O)[C@H]1O equals > 100 µM

====

Consider the following compounds; for each one, report its CC50 at 3 day.
- PROTOCOL SUMMARY: Mitochondrial respiration
- Assay type: cell-based
- CONDITION PARAMETERS: human, PC-3 cells, 3-day CC50 Cellular ATP, 3-day treatment

{"columns": ["COMPOUND", "CC50 at 3 day"],
 "data": [
  ["O=C(N[C@H](CO)[C@H](O)c1ccc([N+](=O)[O-])cc1)C(Cl)Cl [Chloramphenicol, chloramphenicol, reference compound]", "> 50 µM"],
  ["N#C[C@@]1(c2ccc3c(N)ncnn23)O[C@H](CO)[C@@H](O)[C@H]1O", "> 100 µM"]
]}

The recorded CC50 at 3 day for entry CCC(CC)COC(=O)[C@H](C)N[P@](=O)(OC[C@H]1O[C@@](C#N)(c2ccc3c(N)ncnn23)[C@H](O)[C@@H]1O)Oc1ccccc1 equals 24 µM

====

- Tested on: HepG2
- CONDITION PARAMETERS: read-out: 5-day CC50 HepG2 cells Anaerobic (glucose)
QUANTITY: CC50

The recorded CC50 for entry N#C[C@@]1(c2ccc3c(N)ncnn23)O[C@H](CO)[C@@H](O)[C@H]1O equals > 100 µM
